Record form. Attribute: IC100. Fill in for each entry.
molecular target: DNA topoisomerase II (Homo sapiens) (UniProt P11388+Q02880); experiment: The compound was tested for inhibitory activity against human DNA topoisomerase-2.; format: protein assay

Worked cases, IC100 given:
COc1cc([C@@H]2c3cc4c(cc3[C@H](Nc3cc([N+](=O)[O-])cc([N+](=O)[O-])c3)[C@H]3COC(=O)[C@H]23)OCO4)cc(OC)c1O    > 100 µM
COc1cc([C@@H]2c3cc4c(cc3[C@@H](Nc3ccc([N+](=O)[O-])cc3)[C@H]3COC(=O)[C@H]23)OCO4)cc(OC)c1O    10 µM

Turning now to a further compound:
// IC100 lookup, key: "COc1cc([N+](=O)[O-])ccc1N[C@@H]1c2cc3c(cc2[C@@H](c2cc(OC)c(O)c(OC)c2)[C@H]2C(=O)OC[C@@H]21)OCO3" > 100 µM

###

biological target: DNA topoisomerase II (Homo sapiens) (UniProt P11388+Q02880); experiment: The compound was tested for inhibitory activity against human DNA topoisomerase-2.; assay type: protein assay
Record form. Attribute: IC100. Fill in for each entry.

Worked cases, IC100 given:
COc1ccc(N[C@@H]2c3cc4c(cc3[C@@H](c3cc(OC)c(O)c(OC)c3)[C@H]3C(=O)OC[C@@H]32)OCO4)c([N+](=O)[O-])c1    > 100 µM
COc1ccc([N+](=O)[O-])cc1N[C@@H]1c2cc3c(cc2[C@@H](c2cc(OC)c(O)c(OC)c2)[C@H]2C(=O)OC[C@@H]21)OCO3    > 100 µM
COc1cc([C@@H]2c3cc4c(cc3[C@@H](Nc3ccc(NC(=O)C56CCC(C)(C(=O)O5)C6(C)C)cc3)[C@H]3COC(=O)[C@H]23)OCO4)cc(OC)c1O (some centres undefined)    10 µM

Turning now to a further compound:
GET /values?readout=IC100&system=DNA topoisomerase II (Homo sapiens) (UniProt P11388+Q02880)&item= "COc1cc([C@@H]2c3cc4c(cc3[C@@H](Nc3cc([N+](=O)[O-])cc([N+](=O)[O-])c3)[C@H]3COC(=O)[C@H]23)OCO4)cc(OC)c1O" > 100 µM

###

Record form. Attribute: pEC50. Fill in for each entry.
system: A549; experiment: The compound was tested for tumor cell growth inhibitory activity against human lung carcinoma (A549) cell line.; type: functional; settings: A549, read-out: ED50
Answers are plain numbers, as −log10 of the molar value.

Worked cases, pEC50 given:
COc1cc([C@@H]2c3cc4c(cc3[C@@H](O[C@@H]3O[C@@H]5CO[C@@H](C)O[C@H]5[C@H](O)[C@H]3O)[C@H]3COC(=O)[C@H]23)OCO4)cc(OC)c1O [ETOPOSIDE]    5.71
COc1cc([C@@H]2c3cc4c(cc3[C@@H](Nc3ccc(NC(=O)C56CCC(C)(C(=O)O5)C6(C)C)cc3)[C@H]3COC(=O)[C@H]23)OCO4)cc(OC)c1O (stereo partly specified)    5.66
COc1ccc([N+](=O)[O-])cc1N[C@@H]1c2cc3c(cc2[C@@H](c2cc(OC)c(O)c(OC)c2)[C@H]2C(=O)OC[C@@H]21)OCO3    5.65
COc1cc([C@@H]2c3cc4c(cc3[C@@H](Nc3ccc(-c5nc6ccccc6[nH]5)cc3)[C@H]3COC(=O)[C@H]23)OCO4)cc(OC)c1O    6.64
COc1cc([N+](=O)[O-])ccc1N[C@@H]1c2cc3c(cc2[C@@H](c2cc(OC)c(O)c(OC)c2)[C@H]2C(=O)OC[C@@H]21)OCO3    6.20
COc1ccc(N[C@@H]2c3cc4c(cc3[C@@H](c3cc(OC)c(O)c(OC)c3)[C@H]3C(=O)OC[C@@H]32)OCO4)c([N+](=O)[O-])c1    5.77
COc1cc([C@@H]2c3cc4c(cc3[C@@H](Nc3nc5ccccc5[nH]3)[C@H]3COC(=O)[C@H]23)OCO4)cc(OC)c1O    5.46

Turning now to a further molecule:
// pEC50 lookup, key: "COc1cc([N+](=O)[O-])c(OC)cc1N[C@@H]1c2cc3c(cc2[C@@H](c2cc(OC)c(O)c(OC)c2)[C@H]2C(=O)OC[C@@H]21)OCO3" 4.67
